Assay Details: Accelerated stability test (ICH guideline), purity of the stored sucralose product by HPLC
Format: physicochemical
Stated Conditions: storage twelve months; 40° C. ± 2° C., 60% RH ± 5% RH
Measurement Name: Purity after storage, Twelve months (%)
Answer format: numeric, % implied, no suffix.

Consider the reported Purity after storage, Twelve months for these compounds:
INSERT INTO assay_data (compound, endpoint_result) VALUES
  ('OC[C@H]1O[C@H](O[C@]2(CCl)O[C@H](CCl)[C@@H](O)[C@@H]2O)[C@H](O)[C@@H](O)[C@H]1Cl [Example 2, sucralose]', 99.33),
  ('OC[C@H]1O[C@H](O[C@]2(CCl)O[C@H](CCl)[C@@H](O)[C@@H]2O)[C@H](O)[C@@H](O)[C@H]1Cl [Comparative Example 2, sucralose]', 99.47),
  ('OC[C@H]1O[C@H](O[C@]2(CCl)O[C@H](CCl)[C@@H](O)[C@@H]2O)[C@H](O)[C@@H](O)[C@H]1Cl [Raw material, sucralose]', 98.78);

What Purity after storage, Twelve months value was documented for this compound, OC[C@H]1O[C@H](O[C@]2(CCl)O[C@H](CCl)[C@@H](O)[C@@H]2O)[C@H](O)[C@@H](O)[C@H]1Cl [Example 6, sucralose] ? 99.51

Endpoint output: Purity after storage, Twelve months of OC[C@H]1O[C@H](O[C@]2(CCl)O[C@H](CCl)[C@@H](O)[C@@H]2O)[C@H](O)[C@@H](O)[C@H]1Cl [Example 4, sucralose] . Value? 99.73

Would you mind telling me what Purity after storage, Twelve months value was observed for OC[C@H]1O[C@H](O[C@]2(CCl)O[C@H](CCl)[C@@H](O)[C@@H]2O)[C@H](O)[C@@H](O)[C@H]1Cl [Example 1, sucralose] ? 99.79

Consider the compound shown here: OC[C@H]1O[C@H](O[C@]2(CCl)O[C@H](CCl)[C@@H](O)[C@@H]2O)[C@H](O)[C@@H](O)[C@H]1Cl [Example 5, sucralose] What is its recorded Purity after storage, Twelve months? 99.60

Given OC[C@H]1O[C@H](O[C@]2(CCl)O[C@H](CCl)[C@@H](O)[C@@H]2O)[C@H](O)[C@@H](O)[C@H]1Cl [Example 3, sucralose] , state its recorded Purity after storage, Twelve months. 99.26

Which measured Purity after storage, Twelve months value corresponds to OC[C@H]1O[C@H](O[C@]2(CCl)O[C@H](CCl)[C@@H](O)[C@@H]2O)[C@H](O)[C@@H](O)[C@H]1Cl [Comparative Example 1, sucralose] ? 99.38

Dear colleague, I am looking for the recorded Purity after storage, Twelve months of the following compound: OC[C@H]1O[C@H](O[C@]2(CCl)O[C@H](CCl)[C@@H](O)[C@@H]2O)[C@H](O)[C@@H](O)[C@H]1Cl [Comparative Example 3, sucralose] 99.35

----------
Assay Details: Accelerated stability test (ICH guideline), purity of the stored sucralose product by HPLC
Assay type: physicochemical
Stated Conditions: storage three months; 40° C. ± 2° C., 60% RH ± 5% RH
Measurement Name: Purity after storage, Three months (%)
Could you give me the number in %? Just the number is fine.

INSERT INTO results (molecule, endpoint_result) VALUES
  ('OC[C@H]1O[C@H](O[C@]2(CCl)O[C@H](CCl)[C@@H](O)[C@@H]2O)[C@H](O)[C@@H](O)[C@H]1Cl [Example 4, sucralose]', 99.91),
  ('OC[C@H]1O[C@H](O[C@]2(CCl)O[C@H](CCl)[C@@H](O)[C@@H]2O)[C@H](O)[C@@H](O)[C@H]1Cl [Example 5, sucralose]', 99.79),
  ('OC[C@H]1O[C@H](O[C@]2(CCl)O[C@H](CCl)[C@@H](O)[C@@H]2O)[C@H](O)[C@@H](O)[C@H]1Cl [Example 3, sucralose]', 99.56);

Which Purity after storage, Three months value is on record for OC[C@H]1O[C@H](O[C@]2(CCl)O[C@H](CCl)[C@@H](O)[C@@H]2O)[C@H](O)[C@@H](O)[C@H]1Cl [Raw material, sucralose] ? 99.12

Sample OC[C@H]1O[C@H](O[C@]2(CCl)O[C@H](CCl)[C@@H](O)[C@@H]2O)[C@H](O)[C@@H](O)[C@H]1Cl [Comparative Example 2, sucralose] — what was its Purity after storage, Three months? 99.69
